B1: FCHO1 (parent)
chain: DKLALCHLELTRKLQDLIKDVLRY

Variants of: B1
Assay: protein stability index of a GFP-peptide fusion (GPS, HEK-293T) (PSI 1-6); higher = more stable;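 also: lentivirally expressed fusions sorted by FACS into six bins by GFP to DsRed ratio, PSI derived from sequencing read proportions per bin multiplied by bin number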
Settings: c terminus: a fixed tail appended
Rule: criterion met for protein stability index not less than 2, criterion not met for anything less.

Answered cases to consult:
DKLALCHLELTAKLQDLIKDVLRY
criterion not met
DKLALCHLELTYKLQDLIKDVLRY
criterion met
DKLALCHLELTRKLQDYIKDVLRY
criterion met
DKLALCHLELTRKLQDTIKDVLRY
criterion met
DKLALQHLELTRKLQDLIKDVLRY
criterion met
DKLALCHLETTRKLQDLIKDVLRY
criterion met
DKLALCHLELTRKLQDQIKDVLRY
criterion not met
DKLALTHLELTRKLQDLIKDVLRY
criterion met
DKLALCHLHLTRKLQDLIKDVLRY
criterion met
DKLALCHLEPTRKLQDLIKDVLRY
criterion not met

Query :: Check this variant for protein stability index at or above 2: DKLALCDLELTRKLQDLIKDVLRY
Result :: criterion met

Query :: Exam item: decide whether the reported protein stability index for DKLALCHLEMTRKLQDLIKDVLRY is at least 2.
Result :: criterion met

Query :: Is reported protein stability index greater than or equal to 2 here: DKLALCHLELNRKLQDLIKDVLRY
Result :: criterion not met

Query :: Quick check: does DKLALCRLELTRKLQDLIKDVLRY have protein stability index greater than or equal to 2?
Result :: criterion met

Query :: Determine whether measured protein stability index meets or exceeds 2 for DKLALCHLELTRMLQDLIKDVLRY
Result :: criterion met

Query :: Check this variant for protein stability index at or above 2: GKLALCHLELTRKLQDLIKDVLRY
Result :: criterion met

Query :: Form field: protein stability index at least 2? Entry: DKLALCHLELMRKLQDLIKDVLRY
Result :: criterion met

Query :: Confirm if protein stability index reported for the variant DKLALCWLELTRKLQDLIKDVLRY is 2 or above.
Result :: criterion not met

Query :: Check this variant for protein stability index at or above 2: DKCALCHLELTRKLQDLIKDVLRY
Result :: criterion met

Query :: Threshold query (protein stability index >= 2) on DKLALCHLELQRKLQDLIKDVLRY
Result :: criterion met

Query :: Does protein stability index meet or surpass 2 for DKLALCHLELTRKLQDLIKDVGRY ?
Result :: criterion not met

Query :: Threshold query (protein stability index >= 2) on DKLALCHLELTRKLQDLIKGVLRY
Result :: criterion met

Query :: Does the variant DKLALCHLELTRKIQDLIKDVLRY have recorded protein stability index that is 2 or more?
Result :: criterion met
